Just for reference, PubChem BioAssay AID1159580 is where these values come from.

normalized growth values, listed per item
Test: chemical genetic growth profiling, strain panel (AID 1159580);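 also: tested at 20 µM; growth read once vehicle control cultures reached saturation at 30 °C; 1 = growth at the plate median or of vehicle wells; lower values mean less growth of the strain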
Conditions: S. cerevisiae deletion strains, growth OD, strain wtn01, active compounds read low
In all, about 5,500 compounds went through this assay and about 2,000 (36%) were called active. Roughly 18% stayed inconclusive and do not appear here. The list shows a part of the results. Where a SMILES comes first, the peptide text is derived from it. Bridges are numbered along the chain shown (N, C = ends). [ ]: non-standard residue; d: D form. The star is where a group is joined. Octanoyl(6-Me) = CCC(C)CCCCC(=O)*; Orn = NCCC[CH](N)C(=O)O; Dab = NCC[CH](N)C(=O)O
readoutType: normalized growth

- molecule: "O=C(O)c1cc(=O)c2c(Cl)cc(Cl)cc2[nH]1"
  dataValue: 1.02
- molecule: "CC(=O)OCC(=O)[C@@]12OC3(CCCC3)O[C@@H]1CC1C3CCC4=CC(=O)C=C[C@]4(C)[C@@]3(F)[C@@H](O)C[C@@]12C (some centres undefined)"
  dataValue: 0.98
- molecule: "CC(=O)O[C@@H]1CC[C@]2(C)C3CC[C@]4(C)C(=O)CCC4C3CC[C@H]2C1 (some centres undefined)"
  dataValue: 1.01
- molecule: "COc1ccc2c(=O)ccoc2c1"
  dataValue: 0.997
- molecule: "CC1(C)C(=O)[C@@H]2O[C@@H]2[C@@]2(C)C1CC(=O)[C@]1(C)C2CC[C@@]2(C)[C@H](c3ccoc3)OC(=O)[C@H]3O[C@]321 (some centres undefined)"
  dataValue: 0.978
- molecule: "C1CCC(C(CC2CCCCN2)C2CCCCC2)CC1 (centres undefined)"
  dataValue: 0.317
- molecule: "CN(C)CCc1c[nH]c2ccc(CS(=O)(=O)N3CCCC3)cc12"
  dataValue: 0.99
- molecule: "CC(C)CC1NC(=O)C(CCCN)NC(=O)C(C(C)C)NC(=O)C2CCCN2C(=O)C(Cc2ccccc2)NC(=O)C(CC(C)C)NC(=O)C(CCCN)NC(=O)C(C(C)C)NC(=O)C2CCCN2C(=O)C(Cc2ccccc2)NC1=O (centres undefined) (cyclo(FPV[Orn]LFPV[Orn]L); configuration not given here)"
  dataValue: 0.988
- molecule: "COC(=O)C[C@H]1C(C)(C)[C@@H](O)[C@@H]2CC3=C4C=C(OC)O[C@@H](c5ccoc5)[C@]4(C)CCC3[C@@]1(C)C2=O (some centres undefined)"
  dataValue: 1
- molecule: "COP(=O)(OC)OC(Br)C(Cl)(Cl)Br (centres undefined)"
  dataValue: 1
- molecule: "CC(=O)OC1CCC2(C)C3CC(=O)C4(C)C(CC5OC6(CCC(C)CO6)[C@@H](C)C54)C3CC[C@H]2C1 (some centres undefined)"
  dataValue: 0.985
- molecule: "CCCCc1nc(Cl)c(CO)n1Cc1ccc(-c2ccccc2-c2nn[nH]n2)cc1"
  dataValue: 0.989
- molecule: "CC(=O)OCC(=O)[C@@]1(O)CCC2C3CC[C@@H]4C[C@H](OC(C)=O)CC[C@]4(C)C3C(=O)C[C@@]21C (some centres undefined)"
  dataValue: 1.02
- molecule: "Cc1c(NC(=O)c2cccnc2)c(=O)n(-c2ccccc2)n1C"
  dataValue: 1.02
- molecule: "CC[C@H]1CN2CCc3cc(OC)c(OC)cc3C2C[C@@H]1CC1NCCc2cc(OC)c(OC)cc21 (some centres undefined)"
  dataValue: 0.96
- molecule: "CCOC([O-])=Nc1c[n+](N2CCOCC2)no1"
  dataValue: 0.98
- molecule: "COc1c2ccoc2cc2oc(C)cc(=O)c12"
  dataValue: 1.03
- molecule: "NC(N)=NC(N)=Nc1ccccc1"
  dataValue: 1
- molecule: "CC(N)C(O)c1ccc(O)c(O)c1 (centres undefined)"
  dataValue: 1.01
- molecule: "CC1=C(O)C(=O)C=C2C1=CC=C1[C@@]2(C)CC[C@@]2(C)[C@@H]3C[C@](C)(C(=O)O)CC[C@]3(C)CC[C@]12C"
  dataValue: 0.436
- molecule: "O=C(CCc1ccc(O)cc1)c1c(O)cc(O)cc1O[C@@H]1O[C@H](CO)[C@@H](O)[C@H](O)[C@H]1O"
  dataValue: 1
- molecule: "C#C[C@]1(O)CCC2C3CCC4=Cc5oncc5C[C@]4(C)C3CC[C@@]21C (some centres undefined)"
  dataValue: 0.887
- molecule: "CCN(CC)CCNC(=O)c1cc(Cl)c(N)cc1OC"
  dataValue: 0.982
- molecule: "C#CC1(O)CCC2C3CCC4=CC(=O)CCC4(C)C3CCC21C (centres undefined)"
  dataValue: 0.955
- molecule: "CC1=CC(=O)C2=C(C)CC(O)C3C(C)C(=O)OC3C12 (centres undefined)"
  dataValue: 1.08
- molecule: "CC(=O)O[C@H]1CC[C@]2(C)C3CC(=O)[C@]4(C)C(C(C)=O)=CCC4C3CC[C@H]2C1 (some centres undefined)"
  dataValue: 0.973
- molecule: "CCC(C)CCCCC(=O)NC(CCN)C(=O)NC(C(=O)NC(CCN)C(=O)NC1CCNC(=O)C(C(C)O)NC(=O)C(CCN)NC(=O)C(CCN)NC(=O)C(CC(C)C)NC(=O)C(Cc2ccccc2)NC(=O)C(CCN)NC1=O)C(C)O (centres undefined) ({Octanoyl(6-Me)}-[Dab]T[Dab][Dab][Dab]FL[Dab][Dab]T; lactam 4-C; configuration not given here)"
  dataValue: 1.01
- molecule: "CO[C@H]1C[C@H](O[C@H]2[C@H](C)[C@@H](OC3O[C@H](C)C[C@H](N(C)C)[C@H]3OC(C)=O)[C@@H](C)C[C@]3(CO3)C(=O)[C@H](C)[C@@H](OC(C)=O)[C@@H](C)[C@@H](C)OC(=O)[C@@H]2C)O[C@@H](C)[C@@H]1OC(C)=O (some centres undefined)"
  dataValue: 0.975
- molecule: "CC(=O)[C@@]1(O)CCC2C3CCC4=CC(=O)CC[C@]4(C)C3CC[C@@]21C (some centres undefined)"
  dataValue: 1.05
- molecule: "CC(=O)[O][Hg][c]1ccccc1"
  dataValue: 0.0633
- molecule: "CC[C@@H](CO)NC(=O)[C@@H]1C=C2c3cccc4[nH]cc(c34)C[C@H]2N(C)C1"
  dataValue: 0.975
- molecule: "C[C@]12CCC(=O)C=C1CCC1C2[C@@H](O)C[C@@]2(C)C1CC[C@]2(O)C(=O)COC(=O)CCC(=O)O (some centres undefined)"
  dataValue: 0.996
- molecule: "CN1CCN(CCCN2c3ccccc3Sc3ccc(C(F)(F)F)cc32)CC1"
  dataValue: 0.073
- molecule: "NC(=O)N1c2ccccc2C=Cc2ccccc21"
  dataValue: 1.01
